Would you kindly list abundance fitness for each of these variants?
B1: POU domain, class 3, transcription factor 3, residues 408 to 463; numbered along this chain, P20264 (parent)
chain: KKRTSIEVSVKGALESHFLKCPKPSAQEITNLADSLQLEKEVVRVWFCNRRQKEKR

variants of: B1; assay: abundance fitness (aPCA) (normalised: wild type 0, dead -1); higher = more abundant; growth selection in yeast, the domain comes from the species named; settings: Homo sapiens
Format: numeric value only, no unit, no commentary.

What value of abundance fitness has been reported for the following variant? KKRTSIEVSVKGALESHFLKCPKPSAQEITNLADSLQLEKEVVRVWFCNRRQKELR [K55L] -0.006

What value of abundance fitness has been reported for the following variant? KKRTSIEVSVKGALESWFLKCPKPSAQEITNLADSLQLEKEVVRVWFCNRRQKEKR [H17W] -0.048

What value of abundance fitness has been reported for the following variant? KKRTSIEVSVKGALESHFLKCPKPSAQEITNLADSLQLEKEVVRVWFCNARQKEKR [R50A] -0.416

What value of abundance fitness has been reported for the following variant? KKATSIEVSVKGALESHFLKCPKPSAQEITNLADSLQLEKEVVRVWFCNRRQKEKR [R3A] -0.15

What value of abundance fitness has been reported for the following variant? KKRTSIEVSVKGALESHFLKCPKPSAQEITNTADSLQLEKEVVRVWFCNRRQKEKR [L32T] -0.78

What value of abundance fitness has been reported for the following variant? KKRTSIEVSVKGALESHFLKCPAPSAQEITNLADSLQLEKEVVRVWFCNRRQKEKR [K23A] -0.001

What value of abundance fitness has been reported for the following variant? KKRTSIEVSVKGALESHFLSCPKPSAQEITNLADSLQLEKEVVRVWFCNRRQKEKR [K20S] -0.233

What value of abundance fitness has been reported for the following variant? KKRTSIEVSVKGALESHFLKCPKPSAQEITNLADSLQLEKEVVRVWFCNRRGKEKR [Q52G] -0.146

What value of abundance fitness has been reported for the following variant? KKRTSIEVSVKGALESHFLKCPKPSAQEITNLADFLQLEKEVVRVWFCNRRQKEKR [S35F] -0.177

What value of abundance fitness has been reported for the following variant? KKRTSIEVSVKGALESHFLKCPKPSAQSITNLADSLQLEKEVVRVWFCNRRQKEKR [E28S] -0.45

What value of abundance fitness has been reported for the following variant? KKRTSIEVSVKGALESHFLKCPKPSAQEITNLNDSLQLEKEVVRVWFCNRRQKEKR [A33N] -0.941

What value of abundance fitness has been reported for the following variant? KKRTSIEVSVKGALESHFLKIPKPSAQEITNLADSLQLEKEVVRVWFCNRRQKEKR [C21I] -0.73

What value of abundance fitness has been reported for the following variant? KKRTSIEVSVKGALESHFLKCPKPSAQEITNLADSLQLEKQVVRVWFCNRRQKEKR [E41Q] -0.414

What value of abundance fitness has been reported for the following variant? KKRTSIEVSVKGALESHFLKCPKPSAQEITNLADSLQLEKEVVRVWFTNRRQKEKR [C48T] 0.032

What value of abundance fitness has been reported for the following variant? KKRTSIEVSVKGALESHFLKCPKPSAQEITNLADSLQLEKEVVRVWFCNRRAKEKR [Q52A] 0.041
